Data credit: paper PMC10283044

# testProtocol: MTT cell viability assay in mouse primary glial cells
# Assay type: cell-based, C57BL/6 mouse
# testParameters: mouse, primary mixed glial cells, 5 μM, MTT, primary glial cells from C57BL/6 mice
Structures can show the parent of a compound that is named as a salt.
property: viability at 24 h, 5 µM

[[record]]
compound = "O=S(=O)(O)Oc1cc(Cl)c(-c2cc(Cl)ccc2Cl)cc1Cl [4-OH-PCB52 sulfate]"
property = "viability at 24 h, 5 µM"
result = "> 150%"


Below: the item to evaluate.
Query :: Fill in the blank: the reported viability at 24 h, 5 µM of Oc1cc(Cl)c(-c2cc(Cl)ccc2Cl)cc1Cl [4-OH-PCB52] is ____.
Result :: ~0%

* * *

# testProtocol: MTT cell viability assay in mouse primary glial cells
# Format: cell-based, C57BL/6 mouse
# testParameters: mouse, primary mixed glial cells, next higher concentration after 5 μM, MTT, primary glial cells from C57BL/6 mice
Where a name gives a salt, the structure may show the parent alone.
property: viability at 24 h, 10 μM

Query :: Fill in the blank: the reported viability at 24 h, 10 μM of O=S(=O)(O)Oc1cc(Cl)c(-c2cc(Cl)ccc2Cl)cc1Cl [4-OH-PCB52 sulfate] is ____.
Result :: 20%
